The measured values listed here are drawn from ChEMBL document CHEMBL3390834.

Let's go through some recorded IC50 values for Lysine-specific demethylase 4E (Homo sapiens, UniProt B2RXH2) together.
RECORDED_ENDPOINT: IC50 (µM)

compound="NCCc1ccc(O)c(O)c1 [DOPAMINE]" recorded_endpoint=IC50 unit_of_measurement=µM data_value=3
compound="C[C@](N)(Cc1ccc(O)c(O)c1)C(=O)O [METHYLDOPA]" recorded_endpoint=IC50 unit_of_measurement=µM data_value=3

---

- SYSTEM_TESTED: Histone acetyltransferase p300 (Homo sapiens, UniProt Q09472)
- Sequence (Q09472 whole entry): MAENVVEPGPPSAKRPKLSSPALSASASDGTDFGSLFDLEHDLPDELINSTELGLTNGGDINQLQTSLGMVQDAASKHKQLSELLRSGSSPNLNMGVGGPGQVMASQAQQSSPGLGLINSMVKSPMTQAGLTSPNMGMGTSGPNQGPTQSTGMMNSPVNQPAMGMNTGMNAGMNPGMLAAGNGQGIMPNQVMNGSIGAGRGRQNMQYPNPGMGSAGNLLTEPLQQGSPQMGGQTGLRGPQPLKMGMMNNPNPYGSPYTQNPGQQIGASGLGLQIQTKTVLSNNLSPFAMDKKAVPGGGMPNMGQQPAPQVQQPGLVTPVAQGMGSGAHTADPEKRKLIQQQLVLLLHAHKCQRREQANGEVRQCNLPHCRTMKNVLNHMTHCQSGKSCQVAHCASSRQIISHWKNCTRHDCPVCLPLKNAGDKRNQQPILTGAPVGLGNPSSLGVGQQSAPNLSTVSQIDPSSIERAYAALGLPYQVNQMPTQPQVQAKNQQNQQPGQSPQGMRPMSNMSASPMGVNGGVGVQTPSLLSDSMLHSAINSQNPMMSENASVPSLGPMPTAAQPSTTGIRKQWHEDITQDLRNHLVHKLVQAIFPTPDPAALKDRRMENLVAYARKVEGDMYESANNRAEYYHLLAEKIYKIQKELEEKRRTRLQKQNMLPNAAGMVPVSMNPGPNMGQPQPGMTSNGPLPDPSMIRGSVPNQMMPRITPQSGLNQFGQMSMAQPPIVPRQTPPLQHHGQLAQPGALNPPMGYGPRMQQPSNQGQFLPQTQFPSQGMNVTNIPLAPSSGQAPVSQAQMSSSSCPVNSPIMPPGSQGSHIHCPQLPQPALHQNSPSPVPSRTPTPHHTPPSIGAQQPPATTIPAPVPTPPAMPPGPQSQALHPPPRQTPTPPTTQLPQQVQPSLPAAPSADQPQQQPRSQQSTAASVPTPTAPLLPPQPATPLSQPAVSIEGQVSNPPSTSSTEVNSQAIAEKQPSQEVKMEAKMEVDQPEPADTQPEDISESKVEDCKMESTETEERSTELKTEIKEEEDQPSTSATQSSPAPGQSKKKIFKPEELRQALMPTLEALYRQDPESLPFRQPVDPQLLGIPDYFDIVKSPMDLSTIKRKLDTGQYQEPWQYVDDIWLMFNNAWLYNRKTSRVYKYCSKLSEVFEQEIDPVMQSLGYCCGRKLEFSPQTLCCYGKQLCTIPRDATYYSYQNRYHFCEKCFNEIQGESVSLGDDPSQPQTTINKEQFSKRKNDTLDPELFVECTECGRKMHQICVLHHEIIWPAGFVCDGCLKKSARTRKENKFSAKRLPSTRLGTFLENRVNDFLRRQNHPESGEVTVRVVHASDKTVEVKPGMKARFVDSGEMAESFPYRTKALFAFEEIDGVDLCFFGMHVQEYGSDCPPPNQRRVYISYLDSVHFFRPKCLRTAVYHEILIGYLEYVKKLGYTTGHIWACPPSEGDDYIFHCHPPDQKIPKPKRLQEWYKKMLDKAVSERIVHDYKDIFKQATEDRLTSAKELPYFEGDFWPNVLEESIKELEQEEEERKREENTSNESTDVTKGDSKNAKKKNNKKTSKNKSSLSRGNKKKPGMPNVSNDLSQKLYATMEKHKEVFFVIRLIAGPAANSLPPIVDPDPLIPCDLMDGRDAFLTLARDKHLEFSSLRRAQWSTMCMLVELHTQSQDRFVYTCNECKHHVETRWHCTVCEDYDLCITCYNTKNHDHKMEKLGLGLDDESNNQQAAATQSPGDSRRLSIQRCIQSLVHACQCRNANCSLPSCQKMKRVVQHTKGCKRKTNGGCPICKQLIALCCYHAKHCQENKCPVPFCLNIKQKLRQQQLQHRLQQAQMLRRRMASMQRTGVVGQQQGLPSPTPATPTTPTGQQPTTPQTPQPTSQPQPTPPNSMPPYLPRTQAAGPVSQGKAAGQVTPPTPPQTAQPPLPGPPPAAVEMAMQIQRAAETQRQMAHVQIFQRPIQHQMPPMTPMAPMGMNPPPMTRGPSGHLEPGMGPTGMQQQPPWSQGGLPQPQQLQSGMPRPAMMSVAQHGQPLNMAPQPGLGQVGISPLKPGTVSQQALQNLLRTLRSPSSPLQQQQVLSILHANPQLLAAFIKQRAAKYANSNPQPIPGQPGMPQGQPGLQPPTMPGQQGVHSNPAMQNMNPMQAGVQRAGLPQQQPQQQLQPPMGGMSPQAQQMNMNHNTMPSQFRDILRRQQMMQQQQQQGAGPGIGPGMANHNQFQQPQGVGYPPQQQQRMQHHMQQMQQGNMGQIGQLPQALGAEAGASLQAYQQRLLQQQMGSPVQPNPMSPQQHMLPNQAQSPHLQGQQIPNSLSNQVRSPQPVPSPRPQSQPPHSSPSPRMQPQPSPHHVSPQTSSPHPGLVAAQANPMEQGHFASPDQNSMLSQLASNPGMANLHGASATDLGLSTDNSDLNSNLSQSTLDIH
RECORDED_ENDPOINT: IC50 (µM)

smiles_entry=C=C(C)[C@@H](CC=C(C)C)C[C@@]12C[C@@H](CC=C(C)C)C(C)(C)[C@@](CC=C(C)C)(C(=O)C(C(=O)c3ccc(O)c(O)c3)=C1O)C2=O unit_of_measurement=µM data_value=7

---

- SYSTEM_TESTED: Histone acetyltransferase p300 (Homo sapiens, UniProt Q09472)
pKi: −log10 of the molar value.
RECORDED_ENDPOINT: pKi

smiles_entry=CC(=O)N[C@@H](CCCCNC(=O)CSCCNC(=O)CCNC(=O)[C@H](O)C(C)(C)COP(=O)(O)OP(=O)(O)OC[C@H]1O[C@@H](n2cnc3c(N)ncnc32)[C@H](O)[C@@H]1OP(=O)(O)O)C(N)=O recorded_endpoint=pKi data_value=7.72

---

- SYSTEM_TESTED: UniProt Q09472
- ASSAY: Inhibition of recombinant full length p300 (unknown origin) expressed in baculovirus infected insect Sf21 cells using [3H]acetyl-CoA as substrate
RECORDED_ENDPOINT: IC50 (nM)

smiles_entry=CC1=CC(=O)c2c(O)cccc2C1=O recorded_endpoint=IC50 unit_of_measurement=nM data_value=2000

---

- SYSTEM_TESTED: NAD-dependent protein deacetylase sirtuin-2 (Homo sapiens)
- Sequence (Q8IXJ6 whole entry): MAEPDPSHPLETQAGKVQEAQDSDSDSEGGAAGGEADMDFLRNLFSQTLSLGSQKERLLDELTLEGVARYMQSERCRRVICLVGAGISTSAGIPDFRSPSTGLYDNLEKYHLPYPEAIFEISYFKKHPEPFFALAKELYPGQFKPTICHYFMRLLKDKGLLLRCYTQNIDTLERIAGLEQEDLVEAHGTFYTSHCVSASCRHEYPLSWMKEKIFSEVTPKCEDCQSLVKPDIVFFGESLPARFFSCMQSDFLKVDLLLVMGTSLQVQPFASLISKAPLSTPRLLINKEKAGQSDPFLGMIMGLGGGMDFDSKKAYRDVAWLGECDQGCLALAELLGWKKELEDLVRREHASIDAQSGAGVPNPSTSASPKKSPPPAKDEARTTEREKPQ
- ASSAY: Inhibition of SIRT-2 (unknown origin)
RECORDED_ENDPOINT: IC50 (µM)

compound="NC(=O)c1ccccc1Nc1ccccc1 [ANILINOBENZAMIDE]" unit_of_measurement=µM data_value=74

---

- SYSTEM_TESTED: UniProtKB O60341
- ASSAY: Inhibition of N-terminal His-6-tagged full length human LSD-1 expressed in Escherichia coli BL21 (DE3) using H3K4me2 peptide as substrate by Western blotting analysis
pIC50: −log10 of the molar value.
RECORDED_ENDPOINT: pIC50

smiles_entry=CCNCCCCCCCCCCCCCCCCNC/C=C/CNCCCCCCCCCCCCCCCCNCC system_tested="UniProtKB O60341" recorded_endpoint=pIC50 data_value=5.30

---

- SYSTEM_TESTED: Histone deacetylase 1 (Homo sapiens)
- Sequence (Q13547 whole entry): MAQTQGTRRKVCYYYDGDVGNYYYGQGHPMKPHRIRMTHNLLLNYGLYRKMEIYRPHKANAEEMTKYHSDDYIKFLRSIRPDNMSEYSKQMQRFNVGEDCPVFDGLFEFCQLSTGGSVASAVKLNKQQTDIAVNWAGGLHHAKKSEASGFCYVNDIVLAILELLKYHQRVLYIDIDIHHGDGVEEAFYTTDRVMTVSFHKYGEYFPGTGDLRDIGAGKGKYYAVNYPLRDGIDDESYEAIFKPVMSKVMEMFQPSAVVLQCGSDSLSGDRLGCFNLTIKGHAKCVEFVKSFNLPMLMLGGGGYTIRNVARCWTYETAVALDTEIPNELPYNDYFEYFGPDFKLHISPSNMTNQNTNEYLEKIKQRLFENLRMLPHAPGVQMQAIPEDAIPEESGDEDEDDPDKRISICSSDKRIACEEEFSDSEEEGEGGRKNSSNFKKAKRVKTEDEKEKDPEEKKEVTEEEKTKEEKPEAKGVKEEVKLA
RECORDED_ENDPOINT: IC50 (µM)

smiles_entry=Nc1ccccc1NC(=O)CCCCCCC(=O)Nc1ccccc1N recorded_endpoint=IC50 data_value=14.6
